The origin of these recorded values is ChEMBL document CHEMBL4513216.

Kindly supply the reported INHIBITION values for the records listed here.
- Tested on: Plasmodium berghei
- protocol: Screen against P. berghei liver stage (PbLuc), transformed with Luciferase, at 2uM
- Type: functional, HepG2
- reported conditions: tested at 2 uM
In all, about 68,000 compounds went through this assay and about 2,700 (4%) showed an effect of 50% or more. The list comes from a sample in which strong results are over-represented; it also holds close analogues and randomly drawn compounds.
Please give a number only; it is taken to be in %.

Output measured INHIBITION for this item: CCn1cc(Cl)c(C(=O)NCCCO)n1
12.84

Give INHIBITION for the following molecule: Cn1nnc2c(N3CC(C(=O)NCc4cccs4)C3)ncnc21
41.71

Respond only with INHIBITION recorded for CCCNC(=O)C1CCCN(Cc2csc(C(C)(C)C)n2)C1 (centres undefined)
52.87

Please indicate INHIBITION recorded for CCCc1noc(C2CCN(S(=O)(=O)c3cccs3)CC2)n1
-64.06

Look up and state reported INHIBITION for Cn1cc(C[C@H]2[C@H](O)CCN2Cc2ccncc2)cn1
20.41

Specify reported INHIBITION for the molecule shown: Cc1nc(NC(=O)CNC(=O)c2c(F)cccc2Cl)n[nH]1
9.5

Return INHIBITION (reported value) for this molecule: c1ccc(-c2nc(CCNC3CCOC4(CCOCC4)C3)no2)cc1 (centres undefined)
58.53

Please look at this molecule and report its INHIBITION: O=C(CC1CCCC1)NCCS(=O)(=O)N1CCN(c2ccccn2)CC1
-40

Supply measured INHIBITION of c1ccc(-c2nc(CN3CCCC(Cn4cncn4)C3)cs2)cc1 (centres undefined) in your reply.
-37.28

Answer with the recorded INHIBITION of COc1cc(C)nc(N2CCN(C(=O)CCc3cscn3)CC2)n1 only.
-8.58

Identify measured INHIBITION corresponding to CC(C)c1nc(CN2CCCC(Cn3cncn3)C2)cs1 (centres undefined)
5.52

Could you please provide reported INHIBITION for O=C(CC1CCN(c2cccnn2)CC1)NCCO ? Thanks!
68.96

Tell me measured INHIBITION for CCOC(=O)N1CCc2ccccc2C12CCNCC2 please.
4.38

Let me know recorded INHIBITION for c1cc(CN2CC[C@H]3O[C@@H](COCC4CCOCC4)CC[C@H]32)ccn1 , thanks.
-5.17

Identify INHIBITION associated with the molecule Cc1ccc(-c2noc(CN3CCCC(Cn4cncn4)C3)n2)cc1 (centres undefined)
-35.33

Supply measured INHIBITION of c1ccc(Cc2nc(CNC3CCOC4(CCOCC4)C3)no2)cc1 (centres undefined) in your reply.
1.06

Using the record for c1cncc(-c2noc(CN3CCCC(Cn4cncn4)C3)n2)c1 (centres undefined) , state its measured INHIBITION.
-9.22

Give INHIBITION for CC(C)(C)c1nc(CN2CCCC(Cn3cncn3)C2)cs1 (centres undefined)
80.49

Give INHIBITION for the following molecule: CN(C)CCNC(=O)CC1CCN(c2cccnn2)CC1
-36.94

Supply INHIBITION value. Item: CCC(C)Oc1cc(C(=O)Nc2nccs2)ccn1 (centres undefined)
41.05

Please report the measured INHIBITION for Cn1cccc1C(=O)N[C@H]1CN(Cc2ccoc2)[C@@H]2CCCO[C@H]12
56.76

State, in one line, measured INHIBITION of O=C(CNC(=O)c1c(F)cccc1Cl)Nc1ccc(F)cn1
67.28

For the molecule CC(O)(CNC(=O)c1c(F)cccc1Cl)C1CC1 (centres undefined) , report INHIBITION.
-21.74

Report INHIBITION, nothing else, for this molecule: Cn1ccnc1C(=O)N[C@@H]1CN(Cc2ccoc2)[C@@H]2CCCO[C@@H]21
26.76
